// data source = ChEMBL document CHEMBL1127817

Subject Of Test: Tubulin beta chain (Bos taurus, UniProt Q6B856)
Sequence (Q6B856 whole entry): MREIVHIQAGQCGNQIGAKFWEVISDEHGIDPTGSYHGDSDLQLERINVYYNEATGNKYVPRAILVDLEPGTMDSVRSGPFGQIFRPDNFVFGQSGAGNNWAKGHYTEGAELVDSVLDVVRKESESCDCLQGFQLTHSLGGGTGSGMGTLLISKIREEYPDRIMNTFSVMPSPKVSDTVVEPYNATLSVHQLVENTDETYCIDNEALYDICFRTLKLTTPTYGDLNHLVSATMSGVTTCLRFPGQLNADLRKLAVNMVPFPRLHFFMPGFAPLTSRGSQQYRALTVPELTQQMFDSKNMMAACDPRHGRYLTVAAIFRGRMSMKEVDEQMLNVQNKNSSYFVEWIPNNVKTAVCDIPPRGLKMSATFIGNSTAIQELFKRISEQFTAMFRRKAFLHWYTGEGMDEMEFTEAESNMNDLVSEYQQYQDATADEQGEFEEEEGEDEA
Experiment Summary: Inhibition of tubulin polymerization
pIC50: −log10 of the molar value.
Parameter pIC50: see the listing below.

Sample answers from the record:
Smiles Record | pIC50
COc1ccc(-c2cc(O)c3cc(OC)c(OC)cc3n2)cc1OC | < 4.40
COc1cc(-c2cc(O)c3cc4c(cc3n2)OCO4)cc(OC)c1OC | < 4.40
Oc1cc(-c2c[nH]c3ccccc23)nc2cc3c(cc12)OCO3 | 5.89

Consider now this further compound.
For the compound CN(C)c1ccc(-c2cc(O)c3cc4c(cc3n2)OCO4)cc1 , what pIC50 is on record?
< 4.40
